Details: in n-butanol, 288.15 K

Smiles structure	solubility (mole fraction)
O=Cc1cc(Br)c(O)c(Br)c1	0.00539

###

Conditions: in water, 288.15 K
Measured parameter: solubility (mole fraction)

Smiles structure	Measured parameter	Readout number
O=Cc1cc(Br)c(O)c(Br)c1	solubility (mole fraction)	8.16e-05

###

Details: in n-pentanol, 303.15 K

Smiles structure	solubility (mole fraction)
O=Cc1cc(Br)c(O)c(Br)c1	0.0135

###

Details: in n-propanol, 298.15 K
Measured parameter: solubility (mole fraction)

Smiles structure	Readout number
O=Cc1cc(Br)c(O)c(Br)c1	0.00579

###

Details: in ethyl acetate, 318.15 K

Smiles structure	solubility (mole fraction)
O=Cc1cc(Br)c(O)c(Br)c1	0.0171

###

Details: in water, 318.15 K
Measured parameter: solubility (mole fraction)

Smiles structure	Measured parameter	Readout number
O=Cc1cc(Br)c(O)c(Br)c1	solubility (mole fraction)	0.000332

###

Conditions: in ethylene glycol, 293.15 K
Measured parameter: solubility (mole fraction)

Smiles structure	Readout number
O=Cc1cc(Br)c(O)c(Br)c1	0.00397

###

Conditions: in ethylene glycol, 288.15 K

Smiles structure	solubility (mole fraction)
O=Cc1cc(Br)c(O)c(Br)c1	0.00327

###

Conditions: in n-octanol, 288.15 K

Smiles structure	solubility (mole fraction)
O=Cc1cc(Br)c(O)c(Br)c1	0.0105

###

Conditions: in ethylene glycol, 323.15 K
Measured parameter: solubility (mole fraction)

Smiles structure	Readout number
O=Cc1cc(Br)c(O)c(Br)c1	0.0107

###

Conditions: in ethanol, 323.15 K

Smiles structure	solubility (mole fraction)
O=Cc1cc(Br)c(O)c(Br)c1	0.00974

###

Settings: in 1,4-dioxane, 323.15 K

Smiles structure	solubility (mole fraction)
O=Cc1cc(Br)c(O)c(Br)c1	0.03

###

Conditions: in DMSO, 323.15 K
Measured parameter: solubility (mole fraction)

Smiles structure	Readout number
O=Cc1cc(Br)c(O)c(Br)c1	0.0203

###

Settings: in water, 278.15 K
Measured parameter: solubility (mole fraction)

Smiles structure	Result
O=Cc1cc(Br)c(O)c(Br)c1	4.91e-05

###

Conditions: in DMSO, 293.15 K
Measured parameter: solubility (mole fraction)

Smiles structure	Readout number
O=Cc1cc(Br)c(O)c(Br)c1	0.00895

###

Conditions: in DMF, 323.15 K
Measured parameter: solubility (mole fraction)

Smiles structure	Readout number
O=Cc1cc(Br)c(O)c(Br)c1	0.0251

###

Conditions: in ethyl acetate, 293.15 K
Measured parameter: solubility (mole fraction)

Smiles structure	Measured parameter	Readout number
O=Cc1cc(Br)c(O)c(Br)c1	solubility (mole fraction)	0.00845

###

Conditions: in methanol, 303.15 K
Measured parameter: solubility (mole fraction)

Smiles structure	Measured parameter	Readout number
O=Cc1cc(Br)c(O)c(Br)c1	solubility (mole fraction)	0.00395

###

Settings: in isobutanol, 293.15 K

Smiles structure	solubility (mole fraction)
O=Cc1cc(Br)c(O)c(Br)c1	0.00569

###

Details: in DMF, 293.15 K

Smiles structure	solubility (mole fraction)
O=Cc1cc(Br)c(O)c(Br)c1	0.012

###

Details: in n-pentanol, 308.15 K
Measured parameter: solubility (mole fraction)

Smiles structure	Readout number
O=Cc1cc(Br)c(O)c(Br)c1	0.0155
